- assay_details: inhibition of Brca1/Bard1 split-luciferase complementation, confirmation, counter-screen for Mdm2/MdmX interaction inhibitor project, luminescence, single concentration (AID 504668)
- experimental_conditions: Brca1/Bard1 bimolecular luciferase complementation counterscreen, at 8 µM, stronger effect = higher value
Cut-off 30% on inhibition, inclusive. At or above means Criterion met; below means Criterion not met.

compound: COc1cccc(NC(=O)Nc2nnc(CC(=O)NCc3ccccc3)s2)c1
class_name: Criterion met
//
compound: Cn1c(N)c(C(=O)COC(=O)c2ccccc2C(=O)c2ccc(Cl)c([N+](=O)[O-])c2)c(=O)n(C)c1=O
class_name: Criterion not met
//
compound: COc1cc([C@@H]2c3cc4c(cc3[C@@H](O[C@@H]3O[C@@H]5CO[C@@H](C)O[C@H]5[C@H](O)[C@H]3O)[C@H]3COC(=O)[C@H]23)OCO4)cc(OC)c1O
class_name: Criterion met

Does inhibition meet or surpass 30% for `O=C(Nc1cccc(Cl)c1)Nc1nnc(CSCCOc2ccc(Cl)cc2)s1` ?
Criterion not met

Does inhibition meet or surpass 30% for `CCOc1ccc(C(=O)O/N=C(\N)c2ccccn2)cc1` ?
Criterion met

Does inhibition meet or surpass 30% for O=C(CCl)N1CCN2C(=O)c3ccccc3C12c1ccc(Cl)cc1 (centres undefined) ?
Criterion not met

Does inhibition meet or surpass 30% for `C[n+]1c2n(c3ccccc31)N=C(c1ccc(-c3ccccc3)cc1)CS2` ?
Criterion not met

Does inhibition meet or surpass 30% for `O=C(/C=C/Nc1ccccc1Br)c1ccccn1` ?
Criterion not met

Does inhibition meet or surpass 30% for `Cn1c(=O)c(C(=O)Nc2ccccn2)c(O)c2ccccc21` ?
Criterion not met

Does inhibition meet or surpass 30% for `OCCCNc1ncnc2scc(-c3ccc(Cl)cc3)c12` ?
Criterion met

Does inhibition meet or surpass 30% for `O=C(CCN1C(=O)/C(=C/c2ccccc2F)SC1=S)NCCc1ccc(O)cc1` ?
Criterion met

Does inhibition meet or surpass 30% for `Cc1oc(-c2ccccc2Cl)nc1CSCC(=O)N1CCCC1` ?
Criterion not met

Does inhibition meet or surpass 30% for `COC(=O)c1ccc(Sc2nnnn2-c2ccccc2)c([N+](=O)[O-])c1` ?
Criterion not met

Does inhibition meet or surpass 30% for `CCN(CC)S(=O)(=O)c1cc(OC)ccc1N=Nc1ccc(O)c2ncccc12` ?
Criterion met

Does inhibition meet or surpass 30% for `Cc1cnc(NC(=O)c2ccc3c(c2)OCCO3)s1` ?
Criterion not met

Does inhibition meet or surpass 30% for `CC(C)(C)c1ccc(C(=O)O/N=C(\N)c2ccccc2)cc1` ?
Criterion not met

Does inhibition meet or surpass 30% for C=C(C(=O)c1ccccc1)C(C)CC(=O)c1ccccc1 (centres undefined) ?
Criterion met

Does inhibition meet or surpass 30% for `O=C(CCSc1nc2ccccc2s1)N/N=C/c1c(O)ccc2ccccc12` ?
Criterion met

Does inhibition meet or surpass 30% for `CCCCN1/C(=C/c2ccc3ccccc3[n+]2CC)Sc2ccccc21` ?
Criterion met

* * *

- assay_details: caspase-8 TRAIL sensitization, hit retest, confirmation, cell-based, NB7+caspase-8, with/without TRAIL, luminescence panel (AID 651596)
- experimental_conditions: NB7 neuroblastoma + caspase-8, without TRAIL, luminescence viability, without TRAIL, mean of runs, at 10 µM
Exercise: for every item that follows, state its recorded activity.
Give bare numbers, in %.

# count of solved cases: 4
compound: CCCN(CC(=O)Nc1ccccc1C)C(=O)CCl
readout_value: 98.2

compound: CCOC(=O)c1cn(-c2ccc(F)c(F)c2F)c2c(F)c(F)c(F)cc2c1=O
readout_value: 41.5

compound: COC(=O)Cc1[nH]n(-c2nc3ccccc3s2)c(=O)c1C(C)=Nc1ccc(OC)cc1
readout_value: 40.9

compound: Cc1ccc(C(=O)Nc2ccc(C)c(S(=O)(=O)N(C)C)c2)s1
readout_value: 66.5

I have 7 compounds here; please give me activity for each one.
1. CCCCCCCCCCCCCCCC[N+](C)(C)CCl
2. Cc1ccsc1/C=N/NC(=O)c1ccc2c(c1)OCCO2
3. CC(C)Sc1cc(Cl)nc(NC(=O)Nc2ccccc2)n1
4. COc1ccc(C(=O)Nc2ccccc2C(=O)N/N=C/c2ccco2)cc1
5. Cc1c(P(=S)(c2ccccc2)c2ccccc2)[n+]2ccccc2n1C/C=C/c1ccccc1
6. Cc1cccc2sc(NNC(=O)c3cc(-c4cccs4)nc4ccccc34)nc12
7. NC(=O)c1c(NC(=O)c2ccccc2)sc2c1CCCC2

1: 94.3; 2: 68.2; 3: 99.7; 4: 59.1; 5: 56.9; 6: 26.2; 7: 58

Data origin: PubChem BioAssay
